test: Volume of distribution at steady state in Beagle dog at 1 mg/kg, iv measured up to 8 hrs by LC-MS/MS analysis; format: ADME, organism-based, Canis lupus familiaris; conditions: in vivo, read-out: Vdss
Assay endpoint: Vd (L/kg)
Output spec: scalar in L/kg, unitless text.

[Q] Item under review: CN(C)C(=O)c1ccc(-c2n[nH]c3ncc(-c4ccc5c(c4)CC[C@@H](N4C6COCC4C6)CC5)cc23)cc1 . Reported Vd?
[A] 8.1

====

molecular target: UniProt P11712
Sequence (P11712 whole entry): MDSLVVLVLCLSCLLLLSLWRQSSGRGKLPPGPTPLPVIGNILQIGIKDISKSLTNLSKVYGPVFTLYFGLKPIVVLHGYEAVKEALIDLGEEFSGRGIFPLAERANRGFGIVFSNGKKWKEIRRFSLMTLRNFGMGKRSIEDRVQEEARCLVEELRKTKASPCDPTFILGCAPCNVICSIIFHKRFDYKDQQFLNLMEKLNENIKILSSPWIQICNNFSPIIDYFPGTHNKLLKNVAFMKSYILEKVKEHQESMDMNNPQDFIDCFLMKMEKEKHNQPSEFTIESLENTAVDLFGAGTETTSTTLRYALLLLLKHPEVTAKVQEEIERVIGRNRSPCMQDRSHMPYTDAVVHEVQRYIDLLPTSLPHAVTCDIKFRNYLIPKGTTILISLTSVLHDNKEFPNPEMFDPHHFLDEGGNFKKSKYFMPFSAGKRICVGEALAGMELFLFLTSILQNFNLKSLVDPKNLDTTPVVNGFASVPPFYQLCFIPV
Assay endpoint: pIC50
Quick note: pIC50 means taking -log10 of the concentration in moles per liter.

[Q] Please tell me: pIC50 of Cc1cccnc1-c1ccc(-c2n[nH]c3ncc(-c4ccc5c(c4)CC[C@@H](N4C6COCC4C6)CC5)cc23)nc1 , system UniProt P11712?
[A] 4.04

====

Molecular target: Tyrosine-protein kinase receptor UFO (Homo sapiens, UniProt P30530)
Sequence (P30530 whole entry): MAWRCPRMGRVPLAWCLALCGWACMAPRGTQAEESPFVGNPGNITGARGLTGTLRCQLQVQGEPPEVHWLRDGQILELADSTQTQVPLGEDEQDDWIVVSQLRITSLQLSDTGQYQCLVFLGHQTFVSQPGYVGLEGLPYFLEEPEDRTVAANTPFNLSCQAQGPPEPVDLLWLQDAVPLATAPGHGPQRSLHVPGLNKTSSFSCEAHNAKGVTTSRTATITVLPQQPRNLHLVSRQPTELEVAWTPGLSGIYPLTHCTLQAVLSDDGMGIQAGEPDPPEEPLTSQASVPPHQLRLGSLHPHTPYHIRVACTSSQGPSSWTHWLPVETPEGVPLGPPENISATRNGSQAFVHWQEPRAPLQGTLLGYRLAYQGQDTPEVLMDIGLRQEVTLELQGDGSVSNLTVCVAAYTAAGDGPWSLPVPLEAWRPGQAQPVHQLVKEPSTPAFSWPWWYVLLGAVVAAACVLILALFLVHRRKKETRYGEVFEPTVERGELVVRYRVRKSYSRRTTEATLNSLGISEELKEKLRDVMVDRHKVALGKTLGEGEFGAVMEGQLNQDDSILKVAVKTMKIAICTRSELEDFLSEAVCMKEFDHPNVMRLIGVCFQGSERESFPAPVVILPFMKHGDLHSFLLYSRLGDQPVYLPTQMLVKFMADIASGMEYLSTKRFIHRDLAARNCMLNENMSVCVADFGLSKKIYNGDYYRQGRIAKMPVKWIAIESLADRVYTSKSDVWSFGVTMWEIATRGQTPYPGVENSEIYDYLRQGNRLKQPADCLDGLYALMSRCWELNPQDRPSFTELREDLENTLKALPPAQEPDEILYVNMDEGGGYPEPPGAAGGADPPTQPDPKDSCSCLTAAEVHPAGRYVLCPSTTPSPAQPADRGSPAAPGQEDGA
Test: Inhibition of autophosphorylation AXL (unknown origin) expressed in HEK293 cells assessed as NanoLuc activity associated with phosphorylated proteins measured after 1 hr incubation by intracellular pAXL-ELISA
Type: cell-based
Assay endpoint: pIC50
Keep in mind that pIC50 stands for -log10 of concentration in molar terms.

Consider the reported pIC50 for these compounds:
>  <Smiles entry>
Cc1cccnc1-c1ccc(-c2n[nH]c3ncc(-c4ccc5c(c4)CC[C@@H](N4C[C@@H]6C[C@H]4CO6)CC5)cc23)cc1

>  <Reading>
7.24

$$$$
>  <Smiles entry>
Cc1cccnc1-c1ccc(-c2n[nH]c3ncc(-c4ccc5c(c4)CC[C@@](C)(N4CCC[C@H]4C)CC5)cc23)cc1

>  <Reading>
7.89

$$$$
>  <Smiles entry>
Cc1cccnc1-c1ccc(-c2n[nH]c3ncc(-c4ccc5c(c4)CC[C@@H](N4C6COCC4C6)CC5)cc23)nc1

>  <Reading>
7.16

$$$$
>  <Smiles entry>
CO[C@H]1C[C@@H](N[C@H]2CCc3ccc(-c4cnc5[nH]nc(-c6ccc(-c7ncccc7C)cc6)c5c4)cc3CC2)C1

>  <Reading>
6.51

$$$$

[Q] Entry c1ccc(-c2ccc(-c3n[nH]c4ncc(-c5ccc6c(c5)CC[C@@H](N5C7COCC5C7)CC6)cc34)cc2)nc1 has what pIC50?
[A] 5.77

[Q] Could you tell me which pIC50 is on file for COCCOc1cccnc1-c1ccc(-c2n[nH]c3ncc(-c4ccc5c(c4)CC[C@@H](N4C6COCC4C6)CC5)cc23)cc1 ?
[A] 7.48

[Q] Requested read-out: pIC50. Entry: N#Cc1cccnc1-c1ccc(-c2n[nH]c3ncc(-c4ccc5c(c4)CC[C@@H](N4C6COCC4C6)CC5)cc23)cc1
[A] 6.66

====

assay: AUCinf in Sprague-Dawley rat at 2 mg/kg, po measured up to 8 hrs by LC-MS/MS analysis; assay type: ADME, organism-based; details: in vivo
Define the label as rule met when AUC(0-inf) is strictly less than 3000 ng·h/mL and as rule not met in all remaining cases.

>  <Compound>
Cn1ncnc1-c1ccc(-c2n[nH]c3ncc(-c4ccc5c(c4)CC[C@@H](N4C6COCC4C6)CC5)cc23)cc1

>  <Group label>
rule met

$$$$

Here is the next item to consider.
[Q] is_below(AUC(0-inf), 3000 ng·h/mL) for c1cc2c(cc1-c1cnc3[nH]nc(-c4ccc(N5C[C@H]6C[C@@H]5CO6)cc4)c3c1)CC[C@@H](N1C3COCC1C3)CC2 ?
[A] rule met

====

Reported efflux ratio values for a set of compounds
test: Efflux ratio in human Caco-2 cells; assay type: ADME, cell-based

Worked cases, efflux ratio given:
>  <Smiles entry>
c1cc2c(cc1-c1cnc3[nH]nc(-c4ccc(N5C[C@H]6C[C@@H]5CO6)cc4)c3c1)CC[C@@H](N1C3COCC1C3)CC2

>  <efflux ratio>
1.2

$$$$
>  <Smiles entry>
Cc1cccnc1-c1ccc(-c2n[nH]c3ncc(-c4ccc5c(c4)CC[C@@H](N4C6COCC4C6)CC5)cc23)nc1

>  <efflux ratio>
1.9

$$$$
>  <Smiles entry>
COCCOc1ccc(-c2n[nH]c3ncc(-c4ccc5c(c4)CC[C@@H](N4C6COCC4C6)CC5)cc23)cc1

>  <efflux ratio>
0.93

$$$$
>  <Smiles entry>
Cc1cccnc1-c1ccc(-c2n[nH]c3ncc(-c4ccc5c(c4)CC[C@@H](N4C6COCC4C6)CC5)cc23)cc1

>  <efflux ratio>
1

$$$$
>  <Smiles entry>
Cn1ccnc1-c1ccc(-c2n[nH]c3ncc(-c4ccc5c(c4)CC[C@@H](N4C6COCC4C6)CC5)cc23)cc1

>  <efflux ratio>
18

$$$$
>  <Smiles entry>
O=C1OCCN1c1ccc(-c2n[nH]c3ncc(-c4ccc5c(c4)CC[C@@H](N4C6COCC4C6)CC5)cc23)cc1

>  <efflux ratio>
3.3

$$$$
>  <Smiles entry>
CN(C)C(=O)c1ccc(-c2n[nH]c3ncc(-c4ccc5c(c4)CC[C@@H](N4C6COCC4C6)CC5)cc23)cc1

>  <efflux ratio>
11

$$$$
>  <Smiles entry>
Cn1ncnc1-c1ccc(-c2n[nH]c3ncc(-c4ccc5c(c4)CC[C@@H](N4C6COCC4C6)CC5)cc23)cc1

>  <efflux ratio>
5.7

$$$$

[Q] Any idea what efflux ratio was measured for Cc1cccnc1-c1ccc(-c2c[nH]c3ncc(-c4ccc5c(c4)CC[C@@H](N4C6COCC4C6)CC5)cc23)cc1 ?
[A] 0.9

====

experiment: Clearance in CD-1 mouse at 0.5 mg/kg, iv measured up to 24 hrs by LC-MS/MS analysis; format: ADME, organism-based; settings: in vivo
Assay endpoint: clearance (mL/min/kg)
Give the quantity in mL/min/kg, number only.

>  <Smiles entry>
Cc1cccnc1-c1ccc(-c2n[nH]c3ncc(-c4ccc5c(c4)CC[C@@H](N4C6COCC4C6)CC5)cc23)nc1

>  <Unit of measure>
mL/min/kg

>  <Reading>
8.83

$$$$
>  <Smiles entry>
Cc1cccnc1-c1ccc(-c2c[nH]c3ncc(-c4ccc5c(c4)CC[C@@H](N4C6COCC4C6)CC5)cc23)cc1

>  <Unit of measure>
mL/min/kg

>  <Reading>
3.33

$$$$

[Q] Which measured clearance value corresponds to Cc1cccnc1-c1ccc(-c2n[nH]c3ncc(-c4ccc5c(c4)CC[C@@H](N4C6COCC4C6)CC5)cc23)cc1 ?
[A] 5.33

====

experiment: Metabolic stability in rat hepatocytes assessed as intrinsic clearance measured per 10^6 cells; format: ADME, cell-based, Hepatocyte; details: read-out: CLH
Recorded hepatocyte CLint values for a group of molecules are listed next.
Give just the numeric value; µL/min/1e6 cells need not be written.

Past entries and their recorded results:
>  <Molecule>
c1cc(-c2n[nH]c3ncc(-c4ccc5c(c4)CCC(N4C6COCC4C6)CC5)cc23)ccn1 (racemic)

>  <Assay endpoint>
hepatocyte CLint

>  <Unit of measure>
µL/min/1e6 cells

>  <Reading>
13

$$$$
>  <Molecule>
COCCOc1ccc(-c2n[nH]c3ncc(-c4ccc5c(c4)CC[C@@H](N4C6COCC4C6)CC5)cc23)cc1

>  <Assay endpoint>
hepatocyte CLint

>  <Unit of measure>
µL/min/1e6 cells

>  <Reading>
9.1

$$$$
>  <Molecule>
Cc1cccnc1-c1ccc(-c2n[nH]c3ncc(-c4ccc5c(c4)CC[C@@H](N4C[C@@H]6C[C@H]4CO6)CC5)cc23)cc1

>  <Assay endpoint>
hepatocyte CLint

>  <Unit of measure>
µL/min/1e6 cells

>  <Reading>
13

$$$$

[Q] Query: hepatocyte CLint; subject: CO[C@H]1C[C@@H](N[C@H]2CCc3ccc(-c4cnc5[nH]nc(-c6ccc(-c7ncccc7C)cc6)c5c4)cc3CC2)C1
[A] 6.4

[Q] Recorded hepatocyte CLint of Cc1cccnc1-c1ccc(-c2c[nH]c3ncc(-c4ccc5c(c4)CC[C@@H](N4C6COCC4C6)CC5)cc23)cc1 , please.
[A] 5.4
